tested on: ERK4; construct: gene MAPK4; conditions: concentration: 1 μM, replicates: in singlicate; n = 1;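 also: KINOMEscan kinase panel screen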
measurement name: %Inh (%)

{"columns": ["molecule", "value units", "number"],
 "data": [
  ["Cc1ccc(NC(=O)c2ccc(Cl)cc2)cc1-c1ccc(C(=O)Nc2ccncc2)cc1 [GSK1398467]", "%", 19],
  ["Fc1ccc(-c2nc[nH]c2-c2ccncc2)cc1 [SB-217360]", "%", 12],
  ["Cc1ccccc1-c1cc(-c2c[nH]nc2-c2ccccn2)ccn1 [GW680061]", "%", 25],
  ["CNc1cc(-c2ccc3c(N)n[nH]c3c2)nc(N)n1 [GSK2224810]", "%", 7],
  ["CC(C)c1ccc(O)cc1Nc1ccnc2ccc(C(F)(F)F)cc12 [GW482059]", "%", 0],
  ["Nc1nccc(-c2c(-c3ccc(F)cc3)ncn2C2CCN(Cc3ccccc3)CC2)n1 [SB-219980]", "%", 0],
  ["COc1ccc(Nc2nccc(N3CCC(NC(=O)C(C)c4ccc(Cl)cc4)CC3)n2)cc1 (centres unmarked) [GSK1379812]", "%", 0],
  ["Cc1c(Cn2c(C)c(C)n3c(=O)cc(N4CCOCC4)nc23)cccc1C(F)(F)F [GSK2328680]", "%", 0],
  ["Cc1ccc(NC(=O)Nc2ccc(Cl)c(C(F)(F)F)c2)cc1-c1ccc(C(=O)Nc2ccncc2)cc1 [GSK1398470]", "%", 10],
  ["O=C(Nc1n[nH]c2nc(-c3cccs3)c(Br)cc12)C1CCCC1 [SB-743341]", "%", 0],
  ["CC(C)c1cc(-c2ccc3c(N)n[nH]c3c2)nc(N)n1 [GSK2250882]", "%", 26]
]}
